Each entry below carries its reported ALP.
# Organism: Rattus norvegicus
# Assay Text: Open TG-GATES - Regimen: Daily Repeat
# Type: toxicity, organism-based, Sprague-Dawley
# Set-up: regimen Daily Repeat, gender Male, age 6 weeks
# Assay Conditions: in vivo, po, 0 mg/kg, […], tissue Plasma, route gavage, dose level Control, time 28 day

Molecule	ALP [IU/L]
NC(N)=Nc1nc(CSCCC(N)=NS(N)(=O)=O)cs1	664.6
CCOc1ccc(NC(=O)CC(C)O)cc1 (stereo not drawn)	1201
CCCNC(=O)NS(=O)(=O)c1ccc(Cl)cc1 [CHLORPROPAMIDE]	1207

----------
# Species on record: Rattus norvegicus
# Assay Text: Open TG-GATES - Regimen: Single
# Format: toxicity, organism-based, Sprague-Dawley
# Design: regimen Single, gender Male, age 6 weeks
# Assay Conditions: in vivo, po, 0 mg/kg, 24 h, tissue Plasma, route gavage, dose level Control

Compound	Ca
CN(C)CCCN1c2ccccc2CCc2ccc(Cl)cc21 [CLOMIPRAMINE]	10.9 mg/dL
Cc1ccc(C)c(OCCCC(C)(C)C(=O)O)c1 [GEMFIBROZIL]	11.4 mg/dL
CCCNC(=O)NS(=O)(=O)c1ccc(Cl)cc1 [CHLORPROPAMIDE]	10.9 mg/dL
CN(C)CCN(Cc1cccs1)c1ccccn1	11 mg/dL
O=C(CCCN1CCC(O)(c2ccc(Cl)cc2)CC1)c1ccc(F)cc1 [HALOPERIDOL]	11 mg/dL

----------
# Species on record: Rattus norvegicus
# Assay Text: Open TG-GATES - Regimen: Single
# Assay type: toxicity, organism-based, Sprague-Dawley
# Set-up: regimen Single, gender Male, age 6 weeks
# Assay Conditions: in vivo, po, 1000 mg/kg, 24 h, tissue Plasma, route gavage, dose level High

Compound	Unit Tag	Na
COC1=CC(=O)C[C@@H](C)[C@]12Oc1c(Cl)c(OC)cc(OC)c1C2=O	meq/L	141
COc1ccc2[nH]c([S+]([O-])Cc3ncc(C)c(OC)c3C)nc2c1 (centres undefined)	meq/L	140.6
CCOC(=O)CCC(=O)O[C@H]1[C@H](O[C@@H]2[C@@H](C)[C@H](O[C@H]3C[C@@](C)(OC)[C@@H](O)[C@H](C)O3)[C@@H](C)C(=O)O[C@H](CC)[C@@](C)(O)[C@H](O)[C@@H](C)C(=O)[C@H](C)C[C@@]2(C)O)O[C@H](C)C[C@@H]1N(C)C [ERYTHROMYCIN ETHYLSUCCINATE]	meq/L	142.8
NC(N)=Nc1nc(CSCCC(N)=NS(N)(=O)=O)cs1	meq/L	140.2

----------
# Species: Rattus norvegicus
# Assay Text: Open TG-GATES - Regimen: Daily Repeat
# Assay type: toxicity, organism-based, Sprague-Dawley
# Design: regimen Daily Repeat, gender Male, age 6 weeks
# Assay Conditions: in vivo, po, 0 mg/kg, […], tissue Plasma, route gavage, dose level Control, time 7 day
Each record here notes measured TG.

Compound	TG [mg/dL]
CCOC(=O)CCC(=O)O[C@H]1[C@H](O[C@@H]2[C@@H](C)[C@H](O[C@H]3C[C@@](C)(OC)[C@@H](O)[C@H](C)O3)[C@@H](C)C(=O)O[C@H](CC)[C@@](C)(O)[C@H](O)[C@@H](C)C(=O)[C@H](C)C[C@@]2(C)O)O[C@H](C)C[C@@H]1N(C)C [ERYTHROMYCIN ETHYLSUCCINATE]	133.4
O=C(CCCN1CCC(O)(c2ccc(Cl)cc2)CC1)c1ccc(F)cc1 [HALOPERIDOL]	134.4
CN(C)CCN(Cc1cccs1)c1ccccn1	125.8

Data provenance: ChEMBL document CHEMBL3885861
